Tested on: Hs578T complex spheroid growth, percent test/control
Experiment: Anticancer human tumor Hs578T cell line growth inhibition [AhR];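 also: luminescent viability signal as a proxy for spheroid growth; spheroids exposed to agents for one week after three days of growth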
Conditions: second compound 1 µM; first compound 3.16 µM; active compounds read low
Okay, here is how we bin by viability, T/C: one = under 50%, two = from 50% up to 90%, three = 90% and over

| compound | target.desc | qualitative.label |
| --- | --- | --- |
| NS(=O)(=O)OCC1CC(n2ccc3c(NC4CCc5ccccc54)ncnc32)CC1O (stereo unspecified) + Cc1cncc(-c2nc(NCCc3c[nH]c4ccccc34)c3ncn(C(C)C)c3n2)c1 | Hs578T complex spheroid growth, percent test/control | one |
| COc1cc(Nc2ncc3c(n2)-c2ccc(Cl)cc2C(c2c(F)cccc2OC)=NC3)ccc1C(=O)O + Cc1ccccc1N=Nc1ccc(NC(=O)c2ccnn2C)c(C)c1 | Hs578T complex spheroid growth, percent test/control | two |
| COc1cccc2c1C(=O)c1c(O)c3c(c(O)c1C2=O)CC(O)(C(=O)CO)CC3OC1CC(N)C(O)C(C)O1 (stereo unspecified) + Cc1cncc(-c2nc(NCCc3c[nH]c4ccccc34)c3ncn(C(C)C)c3n2)c1 | Hs578T complex spheroid growth, percent test/control | one |
| CC(C)c1c(-c2ccccc2)nc2c(C#N)c[nH]n2c1=O + Cc1cncc(-c2nc(NCCc3c[nH]c4ccccc34)c3ncn(C(C)C)c3n2)c1 | Hs578T complex spheroid growth, percent test/control | three |
| COc1cc(Nc2ncc3c(n2)-c2ccc(Cl)cc2C(c2c(F)cccc2OC)=NC3)ccc1C(=O)O + Cc1cncc(-c2nc(NCCc3c[nH]c4ccccc34)c3ncn(C(C)C)c3n2)c1 | Hs578T complex spheroid growth, percent test/control | two |
| Nc1ccn(C2OC(CO)C(O)C2(F)F)c(=O)n1 (stereo unspecified) + Cc1cncc(-c2nc(NCCc3c[nH]c4ccccc34)c3ncn(C(C)C)c3n2)c1 | Hs578T complex spheroid growth, percent test/control | two |
| COc1cccc2c1C(=O)c1c(O)c3c(c(O)c1C2=O)CC(O)(C(=O)CO)CC3OC1CC(N)C(O)C(C)O1 (stereo unspecified) + Cc1ccccc1N=Nc1ccc(NC(=O)c2ccnn2C)c(C)c1 | Hs578T complex spheroid growth, percent test/control | one |
| NS(=O)(=O)OCC1CC(n2ccc3c(NC4CCc5ccccc54)ncnc32)CC1O (stereo unspecified) + CC(CO)NC(=O)c1cc(-c2ccc(Cl)cc2)nn(-c2cnn(C)c2)c1=O | Hs578T complex spheroid growth, percent test/control | one |
| CC1(C)CCC(CN2CCN(c3ccc(C(=O)NS(=O)(=O)c4ccc(NCC5CCOCC5)c([N+](=O)[O-])c4)c(Oc4cnc5[nH]ccc5c4)c3)CC2)=C(c2ccc(Cl)cc2)C1 + Cc1ccccc1N=Nc1ccc(NC(=O)c2ccnn2C)c(C)c1 | Hs578T complex spheroid growth, percent test/control | three |
| CC(C)c1c(-c2ccccc2)nc2c(C#N)c[nH]n2c1=O + CC(CO)NC(=O)c1cc(-c2ccc(Cl)cc2)nn(-c2cnn(C)c2)c1=O | Hs578T complex spheroid growth, percent test/control | three |

====

Tested on: Hs578T complex spheroid growth, percent test/control
Assay: Anticancer human tumor Hs578T cell line growth inhibition [AhR];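 also: luminescent viability signal as a proxy for spheroid growth; spheroids exposed to agents for one week after three days of growth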
Settings: second compound 1 µM; first compound 10 µM; active compounds read low
Listing of entries alongside the reported viability, T/C.

| compound | viability, T/C, % |
| --- | --- |
| CC1COCCN1c1cc(C2(S(C)(=N)=O)CC2)nc(-c2ccnc3[nH]ccc23)n1 (stereo not drawn) + Cc1ccccc1N=Nc1ccc(NC(=O)c2ccnn2C)c(C)c1 | 48.1 |
| COc1cccc2c1C(=O)c1c(O)c3c(c(O)c1C2=O)CC(O)(C(=O)CO)CC3OC1CC(N)C(O)C(C)O1 (stereo not drawn) + Cc1cncc(-c2nc(NCCc3c[nH]c4ccccc34)c3ncn(C(C)C)c3n2)c1 | 2.76 |
| COc1cc(C2c3cc4c(cc3C(OC3OC5COC(C)OC5C(O)C3O)C3COC(=O)C23)OCO4)cc(OC)c1O (stereo not drawn) + Cc1ccccc1N=Nc1ccc(NC(=O)c2ccnn2C)c(C)c1 | 63.1 |
| NS(=O)(=O)OCC1CC(n2ccc3c(NC4CCc5ccccc54)ncnc32)CC1O (stereo not drawn) + CC(CO)NC(=O)c1cc(-c2ccc(Cl)cc2)nn(-c2cnn(C)c2)c1=O | 27.8 |
| O=C(C=Cc1cccc(S(=O)(=O)Nc2ccccc2)c1)NO + Cc1cncc(-c2nc(NCCc3c[nH]c4ccccc34)c3ncn(C(C)C)c3n2)c1 | 1.72 |
| O=C(c1cc(Cc2n[nH]c(=O)c3ccccc23)ccc1F)N1CCN(C(=O)C2CC2)CC1 + Cc1ccccc1N=Nc1ccc(NC(=O)c2ccnn2C)c(C)c1 | 81.3 |
| O=C(c1cc(Cc2n[nH]c(=O)c3ccccc23)ccc1F)N1CCN(C(=O)C2CC2)CC1 + CC(CO)NC(=O)c1cc(-c2ccc(Cl)cc2)nn(-c2cnn(C)c2)c1=O | 94.7 |
| CC1(C)CCC(CN2CCN(c3ccc(C(=O)NS(=O)(=O)c4ccc(NCC5CCOCC5)c([N+](=O)[O-])c4)c(Oc4cnc5[nH]ccc5c4)c3)CC2)=C(c2ccc(Cl)cc2)C1 + Cc1cncc(-c2nc(NCCc3c[nH]c4ccccc34)c3ncn(C(C)C)c3n2)c1 | 92.8 |
| Nc1ccccc1NC(=O)c1ccc(CNC(=O)OCc2cccnc2)cc1 + CC(CO)NC(=O)c1cc(-c2ccc(Cl)cc2)nn(-c2cnn(C)c2)c1=O | 2.16 |
| Nc1ccn(C2OC(CO)C(O)C2(F)F)c(=O)n1 (stereo not drawn) + CC(CO)NC(=O)c1cc(-c2ccc(Cl)cc2)nn(-c2cnn(C)c2)c1=O | 50.4 |
| COc1ccc([C@@H](O)c2cc(-c3ncnc4cc(N5CCOCC5)ccc34)c(F)cc2Cl)nn1 + CC(CO)NC(=O)c1cc(-c2ccc(Cl)cc2)nn(-c2cnn(C)c2)c1=O | 38.3 |
| O=C(c1cc(Cc2n[nH]c(=O)c3ccccc23)ccc1F)N1CCN(C(=O)C2CC2)CC1 + Cc1cncc(-c2nc(NCCc3c[nH]c4ccccc34)c3ncn(C(C)C)c3n2)c1 | 97.7 |
| COc1cccc2c1C(=O)c1c(O)c3c(c(O)c1C2=O)CC(O)(C(=O)CO)CC3OC1CC(N)C(O)C(C)O1 (stereo not drawn) + CC(CO)NC(=O)c1cc(-c2ccc(Cl)cc2)nn(-c2cnn(C)c2)c1=O | 2.93 |

====

Tested on: Hs578T complex spheroid growth, percent test/control
Experiment: Anticancer human tumor Hs578T cell line growth inhibition [AhR];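 also: luminescent viability signal as a proxy for spheroid growth; spheroids exposed to agents for one week after three days of growth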
Conditions: second compound 1 µM; first compound 0.949 µM; active compounds read low
measured.endpoint: viability, T/C (%)

| molecule | u | readout.value |
| --- | --- | --- |
| CCN(c1cc(-c2ccc(CN3CCOCC3)cc2)cc(C(=O)NCc2c(C)cc(C)[nH]c2=O)c1C)C1CCOCC1 + CC(CO)NC(=O)c1cc(-c2ccc(Cl)cc2)nn(-c2cnn(C)c2)c1=O | % | 111 |
| CCN(c1cc(-c2ccc(CN3CCOCC3)cc2)cc(C(=O)NCc2c(C)cc(C)[nH]c2=O)c1C)C1CCOCC1 + Cc1ccccc1N=Nc1ccc(NC(=O)c2ccnn2C)c(C)c1 | % | 102 |
| O=C(C=Cn1cnc(-c2cc(C(F)(F)F)cc(C(F)(F)F)c2)n1)NNc1cnccn1 + CC(CO)NC(=O)c1cc(-c2ccc(Cl)cc2)nn(-c2cnn(C)c2)c1=O | % | 20.8 |

====

Listing of entries alongside the reported viability, T/C.
Test system: Hs578T complex spheroid growth, percent test/control
Test: Anticancer human tumor Hs578T cell line growth inhibition [AhR];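 also: luminescent viability signal as a proxy for spheroid growth; spheroids exposed to agents for one week after three days of growth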
Conditions: second compound 0.316 µM; first compound 0.03 µM; active compounds read low

| compound | u | viability, T/C |
| --- | --- | --- |
| O=C(C=Cn1cnc(-c2cc(C(F)(F)F)cc(C(F)(F)F)c2)n1)NNc1cnccn1 + CC(CO)NC(=O)c1cc(-c2ccc(Cl)cc2)nn(-c2cnn(C)c2)c1=O | % | 103 |
| O=C(C=Cn1cnc(-c2cc(C(F)(F)F)cc(C(F)(F)F)c2)n1)NNc1cnccn1 + Cc1ccccc1N=Nc1ccc(NC(=O)c2ccnn2C)c(C)c1 | % | 88.5 |
| Nc1ncn(C2CC(O)C(CO)S2)c(=O)n1 (configuration not stated) + CC(CO)NC(=O)c1cc(-c2ccc(Cl)cc2)nn(-c2cnn(C)c2)c1=O | % | 110 |
| Nc1ncn(C2CC(O)C(CO)S2)c(=O)n1 (configuration not stated) + Cc1ccccc1N=Nc1ccc(NC(=O)c2ccnn2C)c(C)c1 | % | 102 |
| Nc1ncn(C2CC(O)C(CO)S2)c(=O)n1 (configuration not stated) + Cc1cncc(-c2nc(NCCc3c[nH]c4ccccc34)c3ncn(C(C)C)c3n2)c1 | % | 107 |
| CCN(c1cc(-c2ccc(CN3CCOCC3)cc2)cc(C(=O)NCc2c(C)cc(C)[nH]c2=O)c1C)C1CCOCC1 + CC(CO)NC(=O)c1cc(-c2ccc(Cl)cc2)nn(-c2cnn(C)c2)c1=O | % | 112 |
| O=C(C=Cn1cnc(-c2cc(C(F)(F)F)cc(C(F)(F)F)c2)n1)NNc1cnccn1 + Cc1cncc(-c2nc(NCCc3c[nH]c4ccccc34)c3ncn(C(C)C)c3n2)c1 | % | 110 |
| CCN(c1cc(-c2ccc(CN3CCOCC3)cc2)cc(C(=O)NCc2c(C)cc(C)[nH]c2=O)c1C)C1CCOCC1 + Cc1cncc(-c2nc(NCCc3c[nH]c4ccccc34)c3ncn(C(C)C)c3n2)c1 | % | 99.9 |
| CCc1c2c(nc3ccc(O)cc13)-c1cc3c(c(=O)n1C2)COC(=O)[C@]3(O)CC + Cc1ccccc1N=Nc1ccc(NC(=O)c2ccnn2C)c(C)c1 | % | 65.4 |
| CCN(c1cc(-c2ccc(CN3CCOCC3)cc2)cc(C(=O)NCc2c(C)cc(C)[nH]c2=O)c1C)C1CCOCC1 + Cc1ccccc1N=Nc1ccc(NC(=O)c2ccnn2C)c(C)c1 | % | 107 |
| CCc1c2c(nc3ccc(O)cc13)-c1cc3c(c(=O)n1C2)COC(=O)[C@]3(O)CC + Cc1cncc(-c2nc(NCCc3c[nH]c4ccccc34)c3ncn(C(C)C)c3n2)c1 | % | 70.4 |
| CC(C)CC(NC(=O)C(Cc1ccccc1)NC(=O)c1cnccn1)B(O)O (configuration not stated) + Cc1ccccc1N=Nc1ccc(NC(=O)c2ccnn2C)c(C)c1 | % | 0.31 |
